Source listed as the supplement of paper PMC6555819.

System: VDR:RXRa (NR concentration 270 nM, RXRa partner concentration 90 nM)
MEASUREMENT_DESCRIPTION: PBM binding z-score (relative to random genomic background probes); higher = stronger binding; sequences stand for … in GC…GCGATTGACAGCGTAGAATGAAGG

SEQ_TEXT	PBM binding z-score
TCGAGTAGGTTAGTCCGGGCATTCAGCCAACATA	0.223
ACTTACGGGTCAACGAGGTTATGGCACGCGTATA	7.66
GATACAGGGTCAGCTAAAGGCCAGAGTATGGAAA	3
TGAATGCGGTTATAAGATCAGGGAACGTTGCAAA	-0.0836
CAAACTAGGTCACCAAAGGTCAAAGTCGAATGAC	6.93
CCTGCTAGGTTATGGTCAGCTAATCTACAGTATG	-0.216
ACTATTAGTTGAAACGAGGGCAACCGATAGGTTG	1.63
TCATATAGGTAAAACGTGAAAGTCGGTGTGGTAA	0.783
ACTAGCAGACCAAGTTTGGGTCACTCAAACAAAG	0.245
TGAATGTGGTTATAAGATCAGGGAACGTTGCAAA	0.157
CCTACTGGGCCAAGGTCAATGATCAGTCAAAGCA	2.24
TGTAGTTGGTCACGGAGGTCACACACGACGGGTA	5.47

----------
System: PPARg:RXRa 90nM:30nM, anti-RXR (NR concentration 90 nM, RXRa partner concentration 30 nM)
MEASUREMENT_DESCRIPTION: PBM binding z-score (relative to random genomic background probes); higher = stronger binding; sequences stand for … in GC…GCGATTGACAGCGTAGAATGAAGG
Label scheme for PBM binding z-score: small value: < 1; mid value: ≥ 1 and < 3; large value: ≥ 3

SEQ_TEXT	CAT
GCAGACAGGTGAAACGCAGGTAATTCAGGGTGGC	small value
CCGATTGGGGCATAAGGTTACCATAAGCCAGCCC	mid value
CCGACTGGGGCACAGGTTACCATACTCAGTACGA	large value
CCTTATGGGTCAAGGTTATAGCACGGGTGGTACG	large value
CCTTACGGGTCACTGACAGTTTATAGCATTTGGA	large value
GCTGCTAGGTCAGGTGGGTCAGCTAACGGGTACG	small value
CTACCTAGGTGAACAAGGTCGTTGATTACTATTC	small value
CATACAGGGTCAGCTAGACCAGAGTAGGGACGGC	mid value
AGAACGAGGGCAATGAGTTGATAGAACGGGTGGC	small value
GCTTGTAGATCAAGGTTCAGAAAGACTAAGCTAA	large value
TCTATTATTTGATTAGGGCAACCGAAACAGCGGA	large value
TCGAGTAGTTTAGTCGGGGCATTCAGCCAACATA	small value
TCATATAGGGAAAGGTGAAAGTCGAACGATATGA	large value
CGTGCAAGGTCATAGGAGGTCAGTGAAGACAGAT	large value
ACGAGTTGGTCAGCTGAGGTCACACACAATTCGG	mid value
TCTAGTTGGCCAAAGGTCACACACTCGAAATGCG	large value
ACTAGCAGGCAAAGTTTGGGTCACTCAAACAAAG	small value
CGAAATAGGTCATCCAGGACAGTGAATACATTGA	large value
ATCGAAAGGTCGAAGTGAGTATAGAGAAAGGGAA	mid value
AGAATTAGGTTATTAAGATCAGGGAATTGCGGTC	mid value
GGAACTAGGGCATTCGAGTTGATAGCATGGCGAT	mid value
TCGTGTAGGTTACCAATGGGGCATTCAGCTTTCT	mid value
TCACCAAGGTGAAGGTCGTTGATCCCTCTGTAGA	large value
TGTCTAAGTTCAAAGGTAACGTAAGTATCCACAC	large value
GATACAGGGTCACGGCCAGAGTACGCGTATTGAT	large value
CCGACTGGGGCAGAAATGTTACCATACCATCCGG	small value
TCTAGTTGGTCACGGATGTCACACACGACGGGTA	mid value
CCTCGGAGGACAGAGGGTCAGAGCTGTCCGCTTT	small value
AATACAGGGTCACTCGGCCAGAGTAGGTACGAAT	large value
CAAACTAGGGCAAGGTCAAAGTCGGTTTGTGCCA	large value
CTCGAAAGGTCGGTTGAGGTGAGTACACGGATAA	small value
TAACCAAGGTGAGCTGAGGTCGTTGATCCAACTC	small value
TCCGCTAGGTCAGTTGGTCAGCTAACGAGCTGCC	mid value
CAAACTTGGTCAAGAGGTCAAAGTCCGCTTCCCG	large value
GCTAGCGGGCCATTTGGGTCACTCAATGACGGGC	small value
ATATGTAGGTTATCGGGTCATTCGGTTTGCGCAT	large value
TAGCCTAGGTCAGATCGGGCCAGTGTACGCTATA	small value
CGAACTAGGTGAAGGACAGTGAATCTCCGCACGC	mid value
CAGCCTAGGCCAGGGCCAGTATAGGAGGAACGTT	small value
CAAACTAGGTAACGAAAGGTCAAAGTCGAATGAC	large value
CCTGCTAGGTCAATGGGCAGCTAAAGCAGCTCGC	mid value
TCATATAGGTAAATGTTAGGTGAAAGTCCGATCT	large value
ATCGAAAAGTCGACGAGGTGAGTATACACCGTTT	small value
TCTAGCAGGCCAGAGGGTCAGTCAAGAGGTACGG	mid value
CGTCCAAGGTCAGAGAGGTCAGTGAGTGCCGAGT	mid value
CGTCCAAGGTCAATGATAGGTCAGTGAAAGCATT	large value
ATCGAAAGGTAGACGAGGTGAGTATACACCGTTT	small value
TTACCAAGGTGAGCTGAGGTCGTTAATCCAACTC	small value
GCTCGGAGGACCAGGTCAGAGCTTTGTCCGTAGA	small value
